# Target: progesterone receptor (Sus scrofa)
# Sequence (D0EWS6 1-934): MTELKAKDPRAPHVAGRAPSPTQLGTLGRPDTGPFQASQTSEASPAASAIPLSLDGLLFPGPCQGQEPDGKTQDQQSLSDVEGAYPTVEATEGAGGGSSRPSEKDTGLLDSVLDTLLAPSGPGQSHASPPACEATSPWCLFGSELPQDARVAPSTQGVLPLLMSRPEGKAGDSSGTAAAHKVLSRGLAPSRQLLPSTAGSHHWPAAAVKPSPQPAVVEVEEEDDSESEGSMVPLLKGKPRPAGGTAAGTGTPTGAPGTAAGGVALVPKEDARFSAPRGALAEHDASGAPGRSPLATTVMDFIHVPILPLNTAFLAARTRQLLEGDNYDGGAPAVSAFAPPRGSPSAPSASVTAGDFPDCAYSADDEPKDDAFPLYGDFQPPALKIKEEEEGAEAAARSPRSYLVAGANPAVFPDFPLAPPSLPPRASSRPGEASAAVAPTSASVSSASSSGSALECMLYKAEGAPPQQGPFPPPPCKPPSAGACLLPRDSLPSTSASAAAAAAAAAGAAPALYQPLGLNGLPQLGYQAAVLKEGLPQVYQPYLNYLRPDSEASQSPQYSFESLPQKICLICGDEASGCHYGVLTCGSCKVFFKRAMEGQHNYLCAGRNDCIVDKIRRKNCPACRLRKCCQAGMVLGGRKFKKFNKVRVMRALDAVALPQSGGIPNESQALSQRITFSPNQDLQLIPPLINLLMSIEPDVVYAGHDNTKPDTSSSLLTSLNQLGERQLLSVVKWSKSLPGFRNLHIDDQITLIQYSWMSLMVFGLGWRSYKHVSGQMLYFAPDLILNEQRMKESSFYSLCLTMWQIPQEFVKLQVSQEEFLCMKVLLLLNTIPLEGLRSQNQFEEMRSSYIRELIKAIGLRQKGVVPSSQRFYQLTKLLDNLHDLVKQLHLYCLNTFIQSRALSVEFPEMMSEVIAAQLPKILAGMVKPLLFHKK
Entries and their measured pIC50 follow.
pIC50 here: minus log base 10 of the concentration, concentration in moles per litre.

The cases that follow already have their pIC50 on record.
pIC50 in this record for COC(=O)C(C)=C1C[C@@]2(C)C(=CC1=O)C=C[C@H](OC(C)=O)[C@@H]2C [Example 14a] : 6.22

Lab note: CC(=O)O[C@H]1CC(Sc2ccccc2)=C2C=C3OC(=O)C(C)=C3C[C@]2(C)[C@H]1C [Example 21a] gave pIC50 of 6.15

Field pIC50 (entry CCOC1=C2C=C3OC(=O)C(C)=C3C[C@]2(C)[C@@H](C)[C@@H](OC(C)=O)C1 [Example 21b] ) reads 6.55

New cases:
Lab book: pIC50 of "CC1=C2C[C@@]3(C)C(=CC=C[C@@H]3C)C=C2OC1=O" noted as 6.40
